molecular target: CjBgl35A (Cellvibrio japonicus); construct: native signal peptide (residues 1-36) excluded; recombinant in E. coli; pET-DEST42 construct with C-terminal tag, or modified pET28a construct with N-terminal His6 tag (crystals); model residues 37-575; assay: isothermal titration calorimetry
Sequence (B3PBE0 entry or part of it): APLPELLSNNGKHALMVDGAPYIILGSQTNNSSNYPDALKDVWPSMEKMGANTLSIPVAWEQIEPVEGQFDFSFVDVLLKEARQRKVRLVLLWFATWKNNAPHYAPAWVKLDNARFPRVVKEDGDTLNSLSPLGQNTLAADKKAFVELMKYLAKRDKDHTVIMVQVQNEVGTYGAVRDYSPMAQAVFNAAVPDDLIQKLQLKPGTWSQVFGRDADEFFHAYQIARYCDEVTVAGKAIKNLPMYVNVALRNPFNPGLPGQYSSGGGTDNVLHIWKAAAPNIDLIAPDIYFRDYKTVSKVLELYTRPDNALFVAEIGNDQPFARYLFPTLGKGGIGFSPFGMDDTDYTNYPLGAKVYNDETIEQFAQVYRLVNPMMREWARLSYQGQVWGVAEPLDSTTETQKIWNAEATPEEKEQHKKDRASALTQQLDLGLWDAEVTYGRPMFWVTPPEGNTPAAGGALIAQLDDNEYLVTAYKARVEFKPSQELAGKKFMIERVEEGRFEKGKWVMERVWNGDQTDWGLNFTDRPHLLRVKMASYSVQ
Experimental Readout: Kd (nM)
Give just the number in nM; leave the unit off.

Test system CjBgl35A (Cellvibrio japonicus); read-out Kd; what value for OC[C@H]1NC[C@H](O)[C@@H](O)[C@H]1O ?
485
